# Tested on: Bombyx mori
# protocol details: Anti-juvenile hormone activity in Bombyx mori Shunrei x Shougetsu 24 hr old third-instar larvae exposed to compound through topical application to dorsal abdomen assessed as precocious metamorphosis at 0.1 ug/larva relative to untreated control
# Assay type: functional
Please provide measured Activity for the entries that follow.
Provide the reading as a plain figure in %.

Activity value, target or system Bombyx mori, for "CCCCC[C@H](COc1ccc(C(=O)OCC)cc1)Cc1ccccc1" : 65

Activity value, target or system Bombyx mori, for CCCC(COc1ccc(C(=O)OCC)cc1)Cc1ccccc1 (racemic) : 0

Activity for Bombyx mori with input CCCCC(COc1ccc(C(=O)OCC)cc1)Cc1ccccc1 (racemic) equals 21

Measured on Bombyx mori, "CCOC(=O)c1ccc(OCC(Cc2ccccc2)Cc2ccccc2)cc1" has a documented Activity of 0

Activity of CCOC(=O)c1ccc(OCC(Cc2ccccc2)CC(C)C)cc1 (racemic) , assay on Bombyx mori, is 0

Activity on Bombyx mori for "CCCC[C@H](COc1ccc(C(=O)OCC)cc1)Cc1ccccc1" is 52

Log: Bombyx mori, molecule "CCCC[C@@H](COc1ccc(C(=O)OCC)cc1)Cc1ccccc1" , Activity = 0

Value (Activity, Bombyx mori) for record CCCCCC(COc1ccc(C(=O)OCC)cc1)Cc1ccccc1 (racemic) = 37

// molecule CCOC(=O)c1ccc(OCC(CC)OC(=O)C(C)(C)C)cc1 (configuration not stated) , assay Bombyx mori, Activity value: 0

Result for CCCCCCC(COc1ccc(C(=O)OCC)cc1)Cc1ccccc1 (racemic) , tested on Bombyx mori, Activity: 0

Case CCOC(=O)c1ccc(OCC(CC)Cc2ccccc2)cc1 (racemic) , Bombyx mori, Activity recorded as 0

For "CCCCC[C@@H](COc1ccc(C(=O)OCC)cc1)Cc1ccccc1" on Bombyx mori, measured Activity was 0

---

# Tested on: Bombyx mori
# protocol details: Anti-juvenile hormone activity in Bombyx mori Shunrei x Shougetsu 24 hr old fifth-instar larvae assessed as time required for onset of cocoon spinning starting from ecdysis day at 1 ug/1 ul applied topically (reference value: 8 +/- 1.2 days)
# Assay type: functional
quantity measured: Time (days)
Please reply with the bare figure in days and do not write the unit itself.

Lab entry: Bombyx mori assay, compound "CCCC[C@@H](COc1ccc(C(=O)OCC)cc1)Cc1ccccc1" , Time = 8.4

Let me check: CCCCC(COc1ccc(C(=O)OCC)cc1)Cc1ccccc1 (racemic) , system Bombyx mori, measured Time is 10.1

Entry CCOC(=O)c1ccc(OCC(CC)OC(=O)C(C)(C)C)cc1 (stereo not given) : Time on Bombyx mori = 12.7

For "CCCC[C@H](COc1ccc(C(=O)OCC)cc1)Cc1ccccc1" on Bombyx mori, measured Time was 14.3

The measured Time that COC(C)(C)CCC[C@H](C)C/C=C/C(C)=C/C(=O)OC(C)C [METHOPRENE] showed for Bombyx mori is 10.9

---

# Tested on: Bombyx mori
# protocol details: Anti-juvenile hormone activity in Bombyx mori Shunrei x Shougetsu 24 hr old third-instar larvae exposed to compound through topical application to dorsal abdomen assessed as precocious metamorphosis at 40 ug/larva relative to untreated control
# Format: functional
Hi there, I'd appreciate the recorded Activity for every entry that follows.
Expressed in %, but write only the number.

Lab note: measured Activity of CCCCCCC(COc1ccc(C(=O)OCC)cc1)Cc1ccccc1 (racemic) was 62

Reported Activity of CCOC(=O)c1ccc(OCC(CC)OC(=O)C(C)(C)C)cc1 (stereo unspecified) : 0

Please fill in: Activity reported for "CCCC[C@H](COc1ccc(C(=O)OCC)cc1)Cc1ccccc1" = 15

Query "CCOC(=O)c1ccc(OCC(Cc2ccccc2)Cc2ccccc2)cc1" yields Activity of 95

Entry CCCCCC(COc1ccc(C(=O)OCC)cc1)Cc1ccccc1 (racemic) , Activity reported as 20

Notebook: CCOC(=O)c1ccc(OCC(Cc2ccccc2)CC(C)C)cc1 (racemic) , Activity read as 46

Recorded result, CCCCC(COc1ccc(C(=O)OCC)cc1)Cc1ccccc1 (racemic) , Activity: 12

Consider CCCC(COc1ccc(C(=O)OCC)cc1)Cc1ccccc1 (racemic) . Its measured Activity is 87

// field: Activity; key: "CCCC[C@@H](COc1ccc(C(=O)OCC)cc1)Cc1ccccc1" ; value = 67

The recorded Activity for "CCCCC[C@@H](COc1ccc(C(=O)OCC)cc1)Cc1ccccc1" is 76

Activity reading for "CCCCC[C@H](COc1ccc(C(=O)OCC)cc1)Cc1ccccc1" : 17
